System: GRK3
Construct: gene ADRBK2
Assay context: concentration: 1 μM, replicates: in singlicate; n = 1
The following compounds are listed with their measured %Inh values.
Quick reminder: number only, in %, skip the unit.

Illustrative cases are given below, each with its answer.
Nc1ncc(-c2ccc3nccc(-c4ccncc4)c3c2)cc1S(=O)(=O)N1CCOCC1 ... 17
O=C(NC1CCN(c2ccnc(Nc3ccc(F)cc3)n2)C1)c1cc2ccccc2s1 (stereo not drawn) ... 33
CCn1c(-c2nonc2N)nc2c(C#CC(C)(C)O)ncc(OCCCCN)c21.O=C(O)C(F)(F)F.O=C(O)C(F)(F)F ... 44
CCn1c(-c2nonc2N)nc2c(C#CC(C)(C)O)nc(OC[C@H](N)c3ccccc3)cc21 ... 0

Exercise: GET %Inh | system: GRK3 | item: Cl.Cl.NCC(NC(=O)c1cc(-c2ccccc2)c(-c2ccnc3[nH]ccc23)s1)c1ccccc1 (stereo not drawn)
Key: 15

Exercise: GET %Inh | system: GRK3 | item: `CCc1ccc(-c2ccc3c(c2)-c2c(cnn2C)S(=O)(=O)N3C)cc1`
Key: 0

Exercise: GET %Inh | system: GRK3 | item: `Cc1occc1-c1ncc(OC[C@@H](N)Cc2c[nH]c3ccccc23)cc1-c1ccc2[nH]nc(C)c2c1.O=C(O)C(F)(F)F`
Key: 0

Exercise: GET %Inh | system: GRK3 | item: `O=C(Nc1cccc(-c2nn3ccccc3c2-c2ccnc(Nc3cccc(F)c3)n2)c1)c1c(F)ccc(F)c1Cl`
Key: 0

Exercise: GET %Inh | system: GRK3 | item: `O=C(Nc1n[nH]c2nc(-c3ccc(O)cc3)ccc12)C1CC1`
Key: 16

Exercise: GET %Inh | system: GRK3 | item: `COc1cccc(C(=O)Nc2cccc(Oc3ccc4nc(NC(=O)C5CC5)cn4n3)c2)c1`
Key: 0

Exercise: GET %Inh | system: GRK3 | item: `CCS(=O)(=O)c1ccc(OC)c(Nc2nccc(-c3c(-c4cccc(NC(=O)c5c(F)cccc5F)c4)nn4ncccc34)n2)c1`
Key: 17

Exercise: GET %Inh | system: GRK3 | item: `Cl.c1ccc(-c2ccc3c(Nc4ccc5[nH]ccc5c4)ccnc3c2)nc1`
Key: 50

Exercise: GET %Inh | system: GRK3 | item: `Cc1cccc(NC(=O)Nc2ccc(Oc3ncnc4ccn(C)c34)cc2)c1`
Key: 0

Exercise: GET %Inh | system: GRK3 | item: `FC(F)(F)c1ccc(/C=C/c2cncnc2Nc2ccc3[nH]c(Cc4ccccc4)nc3c2)cc1`
Key: 0

Exercise: GET %Inh | system: GRK3 | item: `Cc1ccc(F)c(C(=O)Nc2cccc(-c3nn4ccccc4c3-c3ccnc(Nc4cccc(F)c4)n3)c2)c1F`
Key: 0

Exercise: GET %Inh | system: GRK3 | item: `CC(=O)Nc1nc2cnc(Nc3cc(NC(=O)c4cccc(C5(C#N)CC5)c4Cl)ccc3C)nc2s1`
Key: 14

Exercise: GET %Inh | system: GRK3 | item: `O=C(Nc1ccccc1F)NC1CCN(c2ccnc(Nc3ccc(F)cc3)n2)CC1`
Key: 0

Exercise: GET %Inh | system: GRK3 | item: `COc1cc(Nc2nccc(-c3c(-c4cccc(NC(=O)c5c(F)cccc5F)c4)nn4ccccc34)n2)cc(OC)c1OC`;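 note: KINOMEscan kinase panel screen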
Key: 0
